molecular target: Substance-K receptor (Homo sapiens); test: Binding affinity in membrane preparations containing recombinant human Tachykinin receptor 2 in CHO cells by using [3H]NKA as the radioligand.
Under this convention, criterion met denotes Ki strictly below 30 nM and criterion not met denotes Ki at or above 30 nM.

Query: Dear colleague, could you confirm whether Ki of CC(=O)Nc1nc(CN2CCC(NCC(=O)N3CCN(C(=O)c4cc(C)cc(C)c4)C[C@H]3c3ccc(Cl)c(Cl)c3)CC2)cs1 falls below 30 nM? Thanks.
Result: criterion met

Query: Dear colleague, could you confirm whether Ki of CC(=O)NC1(c2ccccc2)CCN(CC(=O)N2CCN(Cc3cc(C(F)(F)F)cc(C(F)(F)F)c3)CC2c2ccc(Cl)c(Cl)c2)CC1 (configuration not stated) falls below 30 nM? Thanks.
Result: criterion not met

Query: Dear colleague, could you confirm whether Ki of O=C(CN1CCN(Cc2ccccc2)CC1)N1CCN(Cc2cc(C(F)(F)F)cc(C(F)(F)F)c2)CC1c1ccc(Cl)c(Cl)c1 (configuration not stated) falls below 30 nM? Thanks.
Result: criterion not met

Query: Dear colleague, could you confirm whether Ki of COc1cc(OC)cc(C(=O)N2CCN(C(=O)CNC3CCN(Cc4ccccc4)CC3)C(c3ccc(Cl)c(Cl)c3)C2)c1 (configuration not stated) falls below 30 nM? Thanks.
Result: criterion met

Query: Dear colleague, could you confirm whether Ki of Cc1cc(C)cc(C(=O)N2CCN(C(=O)CNC3CCN(C(=O)[C@@H](N)Cc4ccccc4)CC3)[C@H](c3ccc(Cl)c(Cl)c3)C2)c1 falls below 30 nM? Thanks.
Result: criterion met

Query: Dear colleague, could you confirm whether Ki of Cc1cc(C)cc(C(=O)N2CCN(C(=O)CNC3CCN(C(=O)[C@H](N)Cc4ccccc4)CC3)[C@H](c3ccc(Cl)c(Cl)c3)C2)c1 falls below 30 nM? Thanks.
Result: criterion met

Query: Dear colleague, could you confirm whether Ki of COc1cc(C(=O)N2CCN(C(=O)CNC3CCN(Cc4ccccc4)CC3)C(c3ccc(Cl)c(Cl)c3)C2)cc(OC)c1OC (configuration not stated) falls below 30 nM? Thanks.
Result: criterion not met

###

target: Substance-K receptor (Homo sapiens, UniProt P21452); assay: Binding affinity in membrane preparations containing recombinant human Tachykinin receptor 2 in CHO cells by using [3H]NKA as the radioligand.
Sequence (P21452 whole entry): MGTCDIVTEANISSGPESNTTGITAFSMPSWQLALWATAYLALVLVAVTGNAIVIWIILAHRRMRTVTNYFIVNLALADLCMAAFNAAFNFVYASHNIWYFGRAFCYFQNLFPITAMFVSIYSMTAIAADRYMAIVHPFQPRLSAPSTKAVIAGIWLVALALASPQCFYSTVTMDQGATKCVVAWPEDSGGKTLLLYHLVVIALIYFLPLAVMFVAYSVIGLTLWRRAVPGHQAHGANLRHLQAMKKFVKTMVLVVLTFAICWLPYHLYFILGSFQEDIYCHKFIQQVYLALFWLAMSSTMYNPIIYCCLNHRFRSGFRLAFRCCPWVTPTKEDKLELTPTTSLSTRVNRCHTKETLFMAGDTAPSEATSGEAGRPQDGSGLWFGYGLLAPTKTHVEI
Consider the following molecules; for each one, report its Ki.

Query: Returns the measured Ki for the input molecule. Input: O=C(c1cc(Br)cc(Br)c1)N1CCN(C(=O)CNC2CCN(Cc3ccccc3)CC2)C(c2ccc(Cl)c(Cl)c2)C1 (centres undefined)
Result: 0.014 µM

Query: Returns the measured Ki for the input molecule. Input: CN1CCN(C(=O)CNC2CCN(Cc3ccccc3)CC2)C(c2ccccc2)C1 (centres undefined)
Result: > 1 µM

Query: Returns the measured Ki for the input molecule. Input: O=C(CNC1CCN(Cc2ccccc2)CC1)N1CCN(Cc2cc(C(F)(F)F)cc(C(F)(F)F)c2)CC1c1ccc(Cl)c(Cl)c1 (centres undefined)
Result: 0.175 µM

Query: Returns the measured Ki for the input molecule. Input: Cc1cc(C)cc(C(=O)N2CCN(C(=O)CNC3CCNCC3)[C@H](c3ccc(Cl)c(Cl)c3)C2)c1
Result: 0.02 µM

###

molecular target: Substance-P receptor (Homo sapiens, UniProt P25103); test: Binding affinity in membrane preparations containing recombinant human Tachykinin receptor 1 in CHO cells by using [3H]-Sar SP as the radioligand.
Sequence (P25103 whole entry): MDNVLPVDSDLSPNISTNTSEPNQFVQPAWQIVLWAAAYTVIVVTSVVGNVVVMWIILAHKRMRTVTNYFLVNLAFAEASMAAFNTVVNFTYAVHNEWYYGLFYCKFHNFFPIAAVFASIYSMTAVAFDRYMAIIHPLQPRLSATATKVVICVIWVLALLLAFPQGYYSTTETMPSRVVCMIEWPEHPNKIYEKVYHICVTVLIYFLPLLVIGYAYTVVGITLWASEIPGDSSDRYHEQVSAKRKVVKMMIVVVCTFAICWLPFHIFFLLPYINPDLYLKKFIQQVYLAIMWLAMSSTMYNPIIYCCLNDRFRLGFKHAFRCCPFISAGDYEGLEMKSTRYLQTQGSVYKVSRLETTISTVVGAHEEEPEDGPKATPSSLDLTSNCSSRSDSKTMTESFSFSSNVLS
endpoint: pKi
The quantity pKi is defined as the negative base-10 logarithm of the molar concentration.

Query: Returns the measured pKi for the input compound. Input: O=C(CNC1CCN(Cc2ccccc2)CC1)N1CCN(Cc2cc(C(F)(F)F)cc(C(F)(F)F)c2)CC1c1ccccc1 (configuration not stated)
Result: 7.77

Query: Returns the measured pKi for the input compound. Input: Cc1cc(C)cc(C(=O)N2CCN(C(=O)CNC3CCN(C(=O)[C@H](N)Cc4c[nH]c5ccccc45)CC3)[C@H](c3ccc(Cl)c(Cl)c3)C2)c1
Result: 7.15

Query: Returns the measured pKi for the input compound. Input: Cc1cc(C)cc(C(=O)N2CCN(C(=O)CNC3CCN(C(=O)[C@H](N)Cc4ccc(O)cc4)CC3)[C@H](c3ccc(Cl)c(Cl)c3)C2)c1
Result: 7.49

Query: Returns the measured pKi for the input compound. Input: O=C(c1cc(Cl)cc(Cl)c1)N1CCN(C(=O)CNC2CCN(Cc3ccccc3)CC2)C(c2ccc(Cl)c(Cl)c2)C1 (configuration not stated)
Result: 8.11

Query: Returns the measured pKi for the input compound. Input: Cc1cc(C)cc(C(=O)N2CCN(C(=O)CNC3CCN(C(=O)[C@@H](N)c4ccccc4)CC3)[C@H](c3ccc(Cl)c(Cl)c3)C2)c1
Result: 7.38

Query: Returns the measured pKi for the input compound. Input: Cc1cc(C)cc(C(=O)N2CCN(C(=O)CNC3CCN(C(=O)[C@@H](N)Cc4ccccc4)CC3)[C@H](c3ccc(Cl)c(Cl)c3)C2)c1
Result: 7.68

Query: Returns the measured pKi for the input compound. Input: CN1CCN(C(=O)CNC2CCN(Cc3ccccc3)CC2)C(c2ccccc2)C1 (configuration not stated)
Result: 6.87

The reported measurements were obtained from ChEMBL document CHEMBL1134946.
